This collection of values is drawn from PubChem BioAssay (NCI).

Tested on: HOP-62 NSCLC
Assay: NCI tumour cell line growth inhibition, 48 h
Listed next: entries and their corresponding GI50.

Short answer for N#CSc1c[nH]c2ccc(/C=C/C(=O)/C=C(O)/C=C/c3ccc4[nH]cc(SC#N)c4c3)cc12 : GI50 was 3.82 µM

Short answer for CCCCCCCCCCCC1=NC(C)(C)CN1C(C)C : GI50 was 4.35 µM

Short answer for CC(C)Cn1cnc2c(N)nc3ccccc3c21 : GI50 was 22.5 µM

Short answer for C/C(=C1\C(=O)Nc2ccccc21)c1cccc(/C(C)=C2/C(=O)Nc3ccccc32)n1 : GI50 was 15.5 µM

Short answer for Clc1ccc2c(NCCCCNc3nc(N4CCOCC4)nc4ccccc34)ccnc2c1 : GI50 was 2.17 µM

Short answer for CCCCCCCCCCCC(c1ccccc1)[N+](C)(C)C (stereo unspecified) : GI50 was 1.52 µM

---

Tested on: NCI/ADR-RES ovarian
Assay: NCI tumour cell line growth inhibition, 48 h
quantity: TGI (µM)
The figure you give is taken to be in µM; do not add the unit.

Short answer for Clc1cccc(-c2cc(-c3ccc4c(c3)OCCO4)[nH]n2)c1 : TGI was 33.8

New cases:
Short answer for COc1cccc(C2CC(C)(O)Oc3cc4c(cc32)OCO4)c1 (stereo not given) : TGI was 59.3

---

System: SF-268 CNS
Test: NCI tumour cell line growth inhibition, 48 h
*1 amine or outer side, *2 acyl side, *3 side chain or, on linkers, in order; H or OH if unused. Where a SMILES comes first, the peptide text is derived from it. The star is where a group is joined. γGlu = O=C(O)[CH](CCC(=O)[*:2])N[*:1]; NHOH = ON*
quantity: TGI

Short answer for NC(CCC(=O)NC(CCC(=O)NO)C(=O)NCC(=O)O)C(=O)O (stereo not given) (γGlu-Glu(NHOH)-Gly-OH; configuration not given here) : TGI was > 100 µM

Short answer for CC(C)Cn1cnc2c(N)nc3ccccc3c21 : TGI was > 100 µM

Short answer for CCCCOC(=O)Nc1ccc(S(=O)(=O)Nc2c(Cl)cccc2Cl)cc1 : TGI was > 100 µM

Short answer for COc1cc(OC)c(-n2[nH]c(=O)n(C)c2=O)c(OC)c1 : TGI was > 100 µM

Short answer for C=C1C(=O)O[C@@H]2C[C@@]3(C)CCC[C@H](C)C3=C[C@H]12 (tested in a mixture with another compound) : TGI was 7.2 µM

---

System: SK-MEL-5 melanoma
Assay: NCI tumour cell line growth inhibition, 48 h
Listed next: entries and their corresponding TGI.

Short answer for C/C(=C1\C(=O)Nc2ccccc21)c1cccc(/C(C)=C2/C(=O)Nc3ccccc32)n1 : TGI was 25.4 µM

Short answer for CCOC(=O)c1nc(SC)sc1NC(=O)c1ccc(OC)cc1 : TGI was > 100 µM

Short answer for O=c1c2ccccc2c(=O)n2n1-c1cccc(c1)CSSCc1cccc-2c1 : TGI was > 100 µM

Short answer for COc1ccc(/C=C2\C(=O)N(C(=O)c3ccc(NC(C)=O)cc3)N=C2C)cc1OC : TGI was > 100 µM

Short answer for c1ccc(CCCN2C3CCC2CN(CCOC(c2ccccc2)c2ccccc2)C3)cc1 : TGI was 11.8 µM

Short answer for CS(=O)(=O)N(CCC#N)c1ccc(/C=C2\N=C(c3ccccc3Cl)OC2=O)cc1 : TGI was > 100 µM

---

System: COLO 205 colon
Assay: NCI tumour cell line growth inhibition, 48 h; in the data active = GI50 below about 0.43 µM; inactive = the rest
Bench note: report the call from active, inactive

Study these solved cases before continuing.
State the result this test recorded for Cc1cc2c(cc1Cl)SC(=Nc1ccc(Cl)cc1)N(S(=O)(=O)c1ccc(Br)s1)S2(=O)=O . inactive

State the result this test recorded for Oc1ccc(CCNc2nc3ccccc3c3[nH]c4ccccc4c23)cc1O . inactive

State the result this test recorded for CN1CCN(c2cc(F)c(NC3=C(Cl)C(=O)c4ncccc4C3=O)c(F)c2)CC1 . inactive

New cases:
State the result this test recorded for COc1cc2c(cc1OCCCCCOc1ccc(-c3nc4ccccc4s3)cc1)N=C[C@@H]1CCCN1C2=O . inactive

State the result this test recorded for Clc1cccc(-c2cc(-c3ccc4c(c3)OCCO4)[nH]n2)c1 . inactive

State the result this test recorded for COC1C(OC(=O)/C=C/C=C/C=C/C=C/C(=O)O)CCC2(CO2)C1C1(C)OC1CC=C(C)C (centres undefined) . active

State the result this test recorded for CCCCCCCCCCCC(c1ccccc1)[N+](C)(C)C (centres undefined) . inactive

State the result this test recorded for CCCCCOC(=O)c1c(C)[nH]c(/C=C2\N=C(c3ccc[nH]3)C=C2OC)c1C . active

State the result this test recorded for Cc1ccc(/C=C/C(=O)c2ccc(F)cc2)s1 . inactive

---

Tested on: SNB-75 CNS
Assay: NCI tumour cell line growth inhibition, 48 h
quantity: GI50

Worked set:
Short answer for CN1CCN(c2cc(F)c(NC3=C(Cl)C(=O)c4ncccc4C3=O)c(F)c2)CC1 : GI50 was 1370 nM

Short answer for COc1cccc2c1C(=O)c1c(O)c3c(c(O)c1C2=O)C[C@@](O)(/C(C)=N/NC(=O)c1cccc([N+](=O)[O-])c1)C[C@@H]3OC1CC(N)C(O)C(C)O1 (stereo partly drawn) : GI50 was 220 nM

Short answer for C/C(=C1\C(=O)Nc2ccccc21)c1cccc(/C(C)=C2/C(=O)Nc3ccccc32)n1 : GI50 was 40200 nM

Short answer for COC1C(OC(=O)/C=C/C=C/C=C/C=C/C(=O)O)CCC2(CO2)C1C1(C)OC1CC=C(C)C (stereo not drawn) : GI50 was 287 nM

Short answer for COc1ccccc1C1C(C#N)=C(N)SC(N)=C1C#N : GI50 was 39200 nM

Short answer for Cc1ccc(NC(=O)c2ccoc2)cc1-c1ccc(C(=O)NCC2CC2)cc1 : GI50 was > 25000 nM

Short answer for c1ccc2[nH]c(-c3ccc(Nc4nc(N5CCCC5)nc5[nH]ncc45)cc3)nc2c1 : GI50 was 1280 nM

Consider the additional compound presented here.
Short answer for CCOc1cc(/C=C/C(=O)CC(=O)/C=C/c2ccc(OC(=O)CNc3nc4ccc(OC)cc4s3)c(OCC)c2)ccc1OC(=O)CNc1nc2ccc(OC)cc2s1 : GI50 was 6770 nM

---

System: IGROV1 ovarian
Experiment: NCI tumour cell line growth inhibition, 48 h; in the data active means GI50 below about 0.43 µM; inactive means the rest
Bench note: report the call from active, inactive

Study these solved cases before continuing.
State the result this test recorded for CCCCCCCCCCCC(c1ccccc1)[N+](C)(C)C (stereo not given) . active

State the result this test recorded for COc1ccc(-c2nn3ncccc3c2-c2ccnc(Nc3ccc(F)c(F)c3)n2)cc1 . inactive

State the result this test recorded for CCOC(=O)c1sc2nc(=S)[nH]c(NC(N)=S)c2c1C . inactive

New cases:
State the result this test recorded for COCCn1c(Nc2ccc(C(=O)NO)cc2)nc2ccccc21 . inactive

State the result this test recorded for CCN(CC)CCN1C(=O)C2C3C(C)=CC(OC(C)=O)(CC3C)C2C1=O (stereo not given) . inactive

State the result this test recorded for O=c1cc(-c2cccc(Cl)c2)[nH]c2cc3c(cc12)OCO3 . inactive

State the result this test recorded for CCCN1CCC(Oc2cc(Nc3nc(Nc4cccc(F)c4C(N)=O)c4cc[nH]c4n3)c(OC)cc2Cl)CC1 . inactive

State the result this test recorded for CN1CCN(c2ccc3nc(-c4[nH]ncc4Nc4ncnc5[nH]ccc45)[nH]c3c2)CC1 . active

State the result this test recorded for Clc1cccc(-c2cc(-c3ccc4c(c3)OCCO4)[nH]n2)c1 . inactive

State the result this test recorded for COc1cc2c(cc1OCCCCCOc1ccc(-c3nc4ccccc4s3)cc1)N=C[C@@H]1CCCN1C2=O . inactive

---

Test system: OVCAR-3 ovarian
Assay: NCI tumour cell line growth inhibition, 48 h
quantity: TGI

Worked set:
Short answer for Clc1ccc2c(NC3CCC(NC4CCCCC4)CC3)ccnc2c1 (stereo unspecified) : TGI was 23.2 µM

Short answer for COC1CCC(O)C(CO)O1 (stereo unspecified) : TGI was > 100 µM

Short answer for Cc1cc2c3c(c1)S(=O)(=O)c1cc(Cl)ccc1N3CCC2 : TGI was > 100 µM

Short answer for COc1ccc(OC)c([N+](=O)[O-])c1-c1nc2sc(Cl)cn2c1/C=N/N=C(N)N : TGI was 40.4 µM

Short answer for CC[O-].CC[O-].[O-]c1ccccc1C=NC12CC3CC(CC(C3)C1)C2.[O-]c1ccccc1C=NC12CC3CC(CC(C3)C1)C2.[Ti+4] : TGI was > 100 µM

Short answer for CCN(Cc1ccccc1)c1ccc(/C=C2\COc3ccccc3C2=O)cc1 : TGI was > 1000 µM

Short answer for O=C1/C(=C/c2cc(O)c(O)c(O)c2)Oc2cc(O)cc(OC3OC(CO)C(O)C(O)C3O)c21 (stereo unspecified) : TGI was 31.4 µM

Short answer for COc1ccc2c(c1)c(-c1ccc(-c3cn(C)c4ccc(OC)cc34)s1)cn2C : TGI was > 100 µM

Short answer for CCO/C(O)=c1/s/c(=C2/SC(=S)N(c3ccc(C)cc3)C2=O)n(-c2ccccc2)c1=N : TGI was > 100 µM

Short answer for COC(=O)C1=C(C(=O)OC)C23CC4CCC2(C(=O)C1O3)C4(C)C (stereo unspecified) : TGI was > 100 µM

New cases:
Short answer for CC(C)(C)CNCCO : TGI was > 100 µM

Short answer for NCCNCCNCc1c2ccccc2c(CNCCNCCN)c2ccccc12 : TGI was > 100 µM
